Target: T1, Human CD137 ECD (human)
T1 construct: entry includes C-terminal His-tag and biotin acceptor peptide; also called human CD137 extracellular domain; 4-1BB
T1 sequence (chain, as listed by the source limits assumed): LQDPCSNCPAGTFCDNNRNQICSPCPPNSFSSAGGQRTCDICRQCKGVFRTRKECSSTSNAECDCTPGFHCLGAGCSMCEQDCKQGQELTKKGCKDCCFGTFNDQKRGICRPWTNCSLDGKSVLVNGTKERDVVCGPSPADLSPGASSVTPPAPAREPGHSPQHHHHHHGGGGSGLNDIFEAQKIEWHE
Assay: Biacore SPR, vs parent H183/L072
test_readout: fold change of affinity (fold)
Number in fold, nothing else.

Recorded fold change of affinity, per entry:
- binder: "H183/L072 VL S26A (antibody, name in Kabat numbering, V domains shown, Dual-Ig) VH: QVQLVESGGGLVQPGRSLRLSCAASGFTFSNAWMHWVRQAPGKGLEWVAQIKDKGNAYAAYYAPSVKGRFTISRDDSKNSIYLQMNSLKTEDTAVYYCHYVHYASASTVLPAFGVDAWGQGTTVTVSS VL: DIVMTQSPLSLPVTPGEPASISCQAAQELVHMNRNTYLHWYQQKPGQAPRLLIYKVSNRFPGVPDRFSGSGSGTDFTLKISRVEAEDVGVYYCAQGTSVPFTFGQGTKLEIK"
  fold change of affinity [fold]: 0.8
- binder: "H183/L072 VL F96R (antibody, name in Kabat numbering, V domains shown, Dual-Ig) VH: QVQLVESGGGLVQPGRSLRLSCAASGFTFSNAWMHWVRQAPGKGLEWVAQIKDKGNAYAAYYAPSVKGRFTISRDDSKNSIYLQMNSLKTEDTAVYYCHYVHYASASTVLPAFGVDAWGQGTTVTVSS VL: DIVMTQSPLSLPVTPGEPASISCQASQELVHMNRNTYLHWYQQKPGQAPRLLIYKVSNRFPGVPDRFSGSGSGTDFTLKISRVEAEDVGVYYCAQGTSVPRTFGQGTKLEIK"
  fold change of affinity [fold]: 0

// below: fold change of affinity requested for another binder
Query: For H183/L072 VL V94S (antibody, name in Kabat numbering, V domains shown, Dual-Ig) VH: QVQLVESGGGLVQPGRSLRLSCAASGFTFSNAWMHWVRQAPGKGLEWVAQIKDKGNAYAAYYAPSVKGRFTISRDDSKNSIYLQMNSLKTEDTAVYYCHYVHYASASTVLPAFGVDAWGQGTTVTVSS VL: DIVMTQSPLSLPVTPGEPASISCQASQELVHMNRNTYLHWYQQKPGQAPRLLIYKVSNRFPGVPDRFSGSGSGTDFTLKISRVEAEDVGVYYCAQGTSSPFTFGQGTKLEIK , what is its reported fold change of affinity?
Reply: 0
